# measurement_target: CCXCKR2 receptor (Homo sapiens, UniProt P25106)
# Construct: host or cells: MCF-7 (endogenous) and/or MDA-MB-435S transfected with hRDC1 in pcDNA3.1(+)
# Sequence (P25106 whole entry): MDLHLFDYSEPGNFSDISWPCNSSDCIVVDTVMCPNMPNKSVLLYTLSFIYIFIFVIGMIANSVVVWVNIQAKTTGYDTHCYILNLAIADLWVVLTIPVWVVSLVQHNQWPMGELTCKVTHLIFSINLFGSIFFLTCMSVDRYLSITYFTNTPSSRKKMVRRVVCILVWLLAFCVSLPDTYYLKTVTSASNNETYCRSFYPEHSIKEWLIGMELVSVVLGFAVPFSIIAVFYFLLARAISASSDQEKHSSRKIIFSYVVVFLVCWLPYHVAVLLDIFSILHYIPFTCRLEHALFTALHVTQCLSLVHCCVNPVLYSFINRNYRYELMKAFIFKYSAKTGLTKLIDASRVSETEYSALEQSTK
# experiment_notes: Displacement of 125I-labeled SDF-1 from the CCXCKR2 receptor (radioligand binding, determination of IC50 values)
# particulars: MCF-7 and/or MDA-MB-435S cells expressing CCXCKR2; 125I SDF-1; 3 hr at 4° C.; read-out: Activity (ability to displace 125I SDF-1 from CCXCKR2)
experimental_endpoint: IC50

- molecule: "COc1ccc(C(=O)N(C[C@@H]2CCCN2CC2CC2)c2cccc(-c3cccnc3)c2)cc1OC [Example 35]"
  measurement_target: "CCXCKR2 receptor (Homo sapiens, UniProt P25106)"
  measurement: "< 2000 nM"
- molecule: "COc1cc(C(=O)N(Cc2ccc3cc(F)ccc3n2)C[C@@H]2C[C@@H]3CCCC[C@@H]3N2)cc2c1OC(C)(C)O2 [Example 72]"
  measurement_target: "CCXCKR2 receptor (Homo sapiens, UniProt P25106)"
  measurement: "< 500 nM"
- molecule: "COc1cc(C(=O)N(CCC2CCCN2C)Cc2cccc3ccccc23)cc(OC)c1OC (centres unmarked) [Example 6]"
  measurement_target: "CCXCKR2 receptor (Homo sapiens, UniProt P25106)"
  measurement: "< 2000 nM"
- molecule: "COc1cc(C(=O)N(Cc2nc(-c3ccccn3)sc2Cl)C[C@@H]2CCCN2C2CCC2)cc2c1OC(C)(C)O2"
  measurement_target: "CCXCKR2 receptor (Homo sapiens, UniProt P25106)"
  measurement: "< 10000 nM"
- molecule: "COc1cc(C(=O)N(CCCN2CCCCC2C)c2ccc3ccccc3c2)cc(OC)c1OC (centres unmarked) [Example 20]"
  measurement_target: "CCXCKR2 receptor (Homo sapiens, UniProt P25106)"
  measurement: "< 2000 nM"
- molecule: "COc1cc(C(=O)N(Cc2cnc3ccccc3n2)C[C@@H]2C[C@@H]3CCCC[C@@H]3N2)cc2c1OC(C)(C)O2 [Example 68]"
  measurement_target: "CCXCKR2 receptor (Homo sapiens, UniProt P25106)"
  measurement: "< 500 nM"
- molecule: "COc1cc(C(=O)N(Cc2ccc3ccccc3[n+]2[O-])C[C@@H]2CCCN2C2CCC2)cc2c1OC(C)(C)O2 [Example 69]"
  measurement_target: "CCXCKR2 receptor (Homo sapiens, UniProt P25106)"
  measurement: "< 10000 nM"
- molecule: "COc1cc(C(=O)N(CCC2CCCN2C)Cc2nc3ccccc3s2)cc(OC)c1OC (centres unmarked) [Example 13]"
  measurement_target: "CCXCKR2 receptor (Homo sapiens, UniProt P25106)"
  measurement: "< 500 nM"

IC50 reported for this molecule COc1cc(C(=O)N(Cc2cc3ccccc3cn2)C[C@@H]2CCCN2C2CCC2)cc2c1OC(C)(C)O2 [Example 62] : < 500 nM

IC50 reported for this molecule COc1ccc(C(=O)N(C[C@@H]2CCCN2CCO)c2cccc(-c3ccccc3)c2)cc1OC [Example 22] : < 500 nM

IC50 reported for this molecule COc1cc(C(=O)N(Cc2nc(-c3ccccc3)cs2)C[C@@H]2C[C@@H]3CCCC[C@@H]3N2)cc2c1OC(C)(C)O2 [Example 51] : < 500 nM

IC50 reported for this molecule COc1cc(C(=O)N(Cc2ccc3ccccc3n2)C[C@@H]2CCCN2CC2CNC2)cc2c1OC(C)(C)O2 [Example 44] : < 500 nM

IC50 reported for this molecule COc1ccc(C(=O)N(C[C@@H]2CCCN2C(C)C)c2cccc(-c3ccccc3)c2)cc1OC [Example 23] : < 500 nM

IC50 reported for this molecule COc1ccc(C(=O)N(C[C@@H]2CCCN2CC2CC2)c2cccc(-c3cccc(C#N)c3)c2)cc1OC [Example 34] : < 10000 nM

###

# measurement_target: CCXCKR2 receptor (Homo sapiens, UniProt P25106)
# Construct: host or cells: MCF-7 (endogenous) and/or MDA-MB-435S transfected with hRDC1 in pcDNA3.1(+)
# experiment_notes: Displacement of 125I-labeled SDF-1 from the CCXCKR2 receptor (radioligand binding, determination of IC50 values)
# particulars: MCF-7 and/or MDA-MB-435S cells expressing CCXCKR2; 125I SDF-1; 3 hr at 4° C.; read-out: Activity (ability to displace 125I SDF-1 from CCXCKR2)
pIC50: −log10 of the molar value.
Listed compounds paired with reported pIC50

Study these solved cases before continuing.
- compound: "COc1cc(C(=O)N(CCC2CCCN2C)Cc2cnc3ccccc3c2)cc(OC)c1OC (stereo not drawn) [Example 10]"
  experimental_endpoint: "pIC50"
  measurement: "> 5.00"
- compound: "COc1ccc(C(=O)N(Cc2nc3ccccc3s2)C[C@@H]2CCCN2CCO)cc1OC [Example 26]"
  experimental_endpoint: "pIC50"
  measurement: "> 6.30"
- compound: "COc1cc(C(=O)N(C[C@@H]2C[C@@H]3CCCC[C@@H]3N2)C(C)c2cc3ccccc3cn2)cc2c1OC(C)(C)O2 (stereo partly drawn) [Example 66]"
  experimental_endpoint: "pIC50"
  measurement: "> 6.30"
- compound: "COc1ccc(C(=O)N(Cc2cc3ccccc3o2)C[C@@H]2CCCN2CC2CCCCC2)cc1OC [Example 3]"
  experimental_endpoint: "pIC50"
  measurement: "> 6.30"
- compound: "COc1cc(C(=O)N(Cc2cc3cc(Cl)ccc3o2)C[C@@H]2CCCN2)ccc1OC(F)F"
  experimental_endpoint: "pIC50"
  measurement: "> 6.30"

pIC50 reported for this compound COc1ccc(C(=O)N(Cc2cnc3ccccc3c2)C[C@@H]2CCCN2CC2CCCCC2)cc1OC [Example 2] : > 5.70

pIC50 reported for this compound COc1cc(C(=O)N(CCCN2CCCCC2C)Cc2ncc(-c3ccccc3)s2)cc(OC)c1OC (stereo not drawn) [Example 19] : > 5.70

###

Listed compounds paired with reported pIC50
# measurement_target: CCXCKR2 receptor (Homo sapiens)
# Construct: host or cells: MCF-7 (endogenous) and/or MDA-MB-435S transfected with hRDC1 in pcDNA3.1(+)
# experiment_notes: Displacement of 125I-labeled SDF-1 from the CCXCKR2 receptor (radioligand binding, determination of IC50 values)
# particulars: MCF-7 and/or MDA-MB-435S cells expressing CCXCKR2; 125I SDF-1; 3 hr at 4° C.; read-out: Activity (ability to displace 125I SDF-1 from CCXCKR2)
pIC50: −log10 of the molar value.

Study these solved cases before continuing.
- compound: "COc1cc(C(=O)N(Cc2nc(-c3ccccc3)sc2Cl)C[C@@H]2C[C@@H]3CCCC[C@@H]3N2)cc2c1OC(C)(C)O2"
  pIC50: "> 6.30"
- compound: "COc1cc(C(=O)N(CCC2CCCN2C)Cc2cc3ccccc3[nH]2)cc(OC)c1OC (stereo not drawn)"
  pIC50: "> 5.70"
- compound: "COc1cc(C(=O)N(Cc2cc3ccccc3cn2)C[C@@H]2CCCN2CC2CNC2)cc2c1OC(C)(C)O2"
  pIC50: "> 5.70"
- compound: "COCCOCCN1CCC[C@H]1CN(Cc1ccc2ccccc2n1)C(=O)c1cc(OC)c2c(c1)OC(C)(C)O2"
  pIC50: "> 6.30"
- compound: "CCOC(=O)c1ccc(-c2cccc(N(C[C@@H]3CCCN3CC3CC3)C(=O)c3ccc(OC)c(OC)c3)c2)cc1"
  pIC50: "> 5.00"
- compound: "COc1ccc(C(=O)N(Cc2ccc3ccccc3c2)C[C@@H]2CCCN2CC2CC=CCC2)cc1OC (stereo partly drawn)"
  pIC50: "> 6.30"

pIC50 reported for this compound COc1ccc(C(=O)N(C[C@@H]2CCCN2CC2CCCCC2)c2cccc(-c3csc(C)n3)c2)cc1OC : > 5.70

pIC50 reported for this compound COc1ccc(C(=O)N(Cc2nc3ccccc3s2)C[C@@H]2CCCN2)cc1OC : > 5.70

###

# measurement_target: CCXCKR2 receptor (Homo sapiens)
# Construct: host or cells: MCF-7 (endogenous) and/or MDA-MB-435S transfected with hRDC1 in pcDNA3.1(+)
# experiment_notes: Displacement of 125I-labeled SDF-1 from the CCXCKR2 receptor (radioligand binding, determination of IC50 values)
# particulars: MCF-7 and/or MDA-MB-435S cells expressing CCXCKR2; 125I SDF-1; 3 hr at 4° C.; read-out: Activity (ability to displace 125I SDF-1 from CCXCKR2)
experimental_endpoint: IC50

Study these solved cases before continuing.
- compound: "COc1cc(C(=O)N(CCC2CCCN2C)Cc2cc3ccccc3s2)cc(OC)c1OC (stereo not shown) [Example 8]"
  measurement_target: "CCXCKR2 receptor (Homo sapiens)"
  experimental_endpoint: "IC50"
  measurement: "< 0.5 µM"
- compound: "COc1ccc(C(=O)N(C[C@@H]2CCCN2CC2CC2)c2cccc(-c3ccc(N(C)C)cc3)c2)cc1OC [Example 37]"
  measurement_target: "CCXCKR2 receptor (Homo sapiens)"
  experimental_endpoint: "IC50"
  measurement: "< 10 µM"
- compound: "COc1cc(C(=O)N(CCC2CCCN2C)Cc2ccc3c(c2)OCCO3)cc(OC)c1OC (stereo not shown) [Example 9]"
  measurement_target: "CCXCKR2 receptor (Homo sapiens)"
  experimental_endpoint: "IC50"
  measurement: "< 0.5 µM"

Please find the next compound below.
IC50 reported for this compound COc1cc(C(=O)N(Cc2cnc3ccccc3n2)C[C@@H]2CCCN2C2CCC2)cc2c1OC(C)(C)O2 [Example 67] : < 2 µM
